assay-target: Mannose-6-phosphate isomerase (Homo sapiens, UniProt P34949)
Sequence (P34949 whole entry): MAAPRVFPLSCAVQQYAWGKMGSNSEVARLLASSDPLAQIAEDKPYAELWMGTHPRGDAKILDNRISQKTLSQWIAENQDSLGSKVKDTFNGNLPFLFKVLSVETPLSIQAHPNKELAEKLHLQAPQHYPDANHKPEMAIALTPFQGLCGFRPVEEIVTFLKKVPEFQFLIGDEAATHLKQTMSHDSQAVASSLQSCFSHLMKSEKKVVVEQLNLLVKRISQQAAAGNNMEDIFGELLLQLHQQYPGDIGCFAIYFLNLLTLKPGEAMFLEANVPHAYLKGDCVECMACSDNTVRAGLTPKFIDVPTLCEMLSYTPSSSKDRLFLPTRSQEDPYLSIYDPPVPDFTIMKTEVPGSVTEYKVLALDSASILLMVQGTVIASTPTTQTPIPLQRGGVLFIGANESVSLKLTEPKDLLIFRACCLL
assay-protocol: human PMI inhibitors, high substrate, primary screen, biochemical, fluorescence intensity, high mannose 6-phosphate (AID 1220)
Active and inactive are the calls of the source.
quantity-kind: IC50

1. O=C(CSc1ccc(-c2ccccn2)nn1)c1ccc(F)cc1 ... > 50 µM (not active)
2. CCCCCn1c(NC(=O)c2ccco2)c(C(=O)OCC)c2nc3ccccc3nc21 ... > 50 µM (not active)
3. Cc1n[nH]c(=S)n(NC(=O)CC(=O)Nn2c(=S)[nH]nc(C)c2=O)c1=O ... > 50 µM (not active)
4. COc1ccc(-n2c(=S)[nH]c3c(sc(=S)n3-c3ccccc3)c2=O)c(OC)c1 ... 37.6 µM (active)
5. Cc1nc2c(C(=O)NCCc3ccccc3)cnn2c(O)c1Cl ... > 50 µM (not active)
6. COc1cc(-c2nnc(SCc3cc(=O)oc4cc(O)c(O)cc34)o2)cc(OC)c1OC ... > 50 µM (not active)

###

assay-target: Paired box protein Pax-8 (Homo sapiens, UniProt Q06710)
Sequence (Q06710 whole entry): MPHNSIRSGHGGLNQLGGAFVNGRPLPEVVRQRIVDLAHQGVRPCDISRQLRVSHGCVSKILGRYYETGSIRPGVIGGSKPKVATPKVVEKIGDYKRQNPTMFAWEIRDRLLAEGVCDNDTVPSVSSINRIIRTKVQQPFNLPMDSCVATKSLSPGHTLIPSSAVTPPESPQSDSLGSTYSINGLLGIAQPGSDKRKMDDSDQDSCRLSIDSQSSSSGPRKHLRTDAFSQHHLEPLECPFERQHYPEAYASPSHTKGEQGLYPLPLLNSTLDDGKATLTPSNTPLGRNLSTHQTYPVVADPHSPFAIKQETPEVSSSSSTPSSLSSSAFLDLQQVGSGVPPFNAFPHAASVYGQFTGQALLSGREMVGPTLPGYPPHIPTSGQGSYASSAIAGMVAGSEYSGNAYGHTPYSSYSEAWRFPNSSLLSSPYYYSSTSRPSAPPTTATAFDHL
assay-protocol: inhibitors of PAX8-driven TPO luciferase reporter, dose response, RMG-I cells, cherry-pick (AID 687027);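 also: luciferase reporter driven by Pax8 target thyroperoxidase promoter measured by SteadyGlo luminescence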
Assay type: functional, cell-based
The source made the active and inactive calls.
quantity-kind: AC50

1) C[C@@H]1CN([C@H](C)CO)C(=O)c2c(c3ccccc3n2C)-c2ccccc2CO[C@H]1CN(C)S(=O)(=O)c1ccc(C(F)(F)F)cc1 ... 4.41 µM (active)
2) Cn1nnnc1Sc1ncnc2scc(-c3cc4ccccc4o3)c12 ... 3.12 µM (active)
3) COc1cc2c(c(OC)c1OC)-c1ccc(SC)c(=O)cc1C(NC(=O)C(F)(F)F)CC2 (stereo not given) ... < 0.26 µM (active)
4) C[C@H]1CCCCO[C@@H](CN(C)Cc2ccncc2)[C@@H](C)CN([C@@H](C)CO)C(=O)c2cc(NC(=O)Nc3ccc(C(F)(F)F)cc3)ccc2O1 ... 7.3 µM (active)
5) O=C(CN1C(=O)c2ccccc2S1(=O)=O)c1ccccc1Cl ... 7.18 µM (active)
6) Cc1ccc(NC(=O)Cn2ncc(Cl)c(Cl)c2=O)cc1S(=O)(=O)N1CCCCC1 ... 4.58 µM (active)
7) O=C(Nc1ccccc1)N1CCCCN2[C@H](C1)[C@@H](c1ccc(C#Cc3ccccc3)cc1)[C@@H]2CO ... 10.5 µM (active)
8) Oc1nc2ccccc2n1C1CCN(C(CCc2ccccc2)c2nnnn2-c2ccc3c(c2)OCCO3)CC1 (stereo not given) ... 1.54 µM (active)
9) CCCCn1c(=O)[nH]c(=O)c2c1nc(Cn1ncc(Cl)c(Cl)c1=O)n2CCC ... 6.68 µM (active)
10) O=C(c1ccc(F)cc1)N1CC(=O)N2[C@@H](CO)[C@@H](c3ccc(C#Cc4ccc(F)cc4)cc3)[C@@H]2C1 ... 9.4 µM (active)
11) Cn1nnnc1Sc1ncnc2scc(-c3ccsc3)c12 ... 2.56 µM (active)
12) C[C@@H]1CN([C@H](C)CO)C(=O)c2cc(NS(=O)(=O)c3ccc(Cl)cc3)ccc2O[C@@H](C)CCCCO[C@@H]1CN(C)Cc1ccc(Cl)c(Cl)c1 ... 11.7 µM (active)
13) Cc1cccc(CS(=O)(=O)c2ncc(Cl)c(C(=O)Nc3ccc(F)cc3)n2)c1 ... 9.28 µM (active)
14) COc1cccc(C(c2nnnn2Cc2ccccc2)N2CCC(n3c(O)nc4ccccc43)CC2)c1OC (stereo not given) ... 5.5 µM (active)
15) C[C@@H]1CCCCO[C@H](CN(C)Cc2ccc(C(F)(F)F)cc2)[C@H](C)CN([C@H](C)CO)C(=O)c2cc(NS(=O)(=O)c3ccccc3)ccc2O1 ... 6.88 µM (active)

###

assay-protocol: inhibitors of HIV Env-driven cell fusion, dose response, cherry-pick (AID 652057)
Type: functional, cell-based
Activity calls are given as the source filed them.
quantity-kind: AC50

1) C[C@@]12C(=O)N(Cc3ccccc3)CC(=O)N1[C@H]1c3ccccc3OC[C@@H]1[C@@H]2c1ccccc1 ... 1.65 µM (active)
2) CS(=O)(=O)N(Cc1ccc(Cl)cc1)c1ccc(C(=O)NCCC2=CCCCC2)cc1 ... 1.92 µM (active)
3) COc1ccc(CCN2C(=O)c3[nH]nc(-c4ccccc4O)c3C2c2ccc(C)cc2)cc1OC (stereo not given) ... 2.11 µM (active)
4) CC(=O)Nc1ccc(NC(=O)CN(c2ccc(C34CC5CC(CC(C5)C3)C4)cc2)S(C)(=O)=O)cc1 ... 2.87 µM (active)
5) COc1ccc(-c2ccc3c(c2)[C@@H]2[C@@H](CCN2C(=O)NC2CCCC2)[C@H](CO)N3C)cc1 ... 26.5 µM (active)

###

assay-target: UniProt P00734
assay-protocol: Thrombin 1536 HTS Dose Response Confirmation. [Related pubchem assays: 1046 (Thrombin 1536 HTS; hits were confirmed in this assay)]
Type: functional
Calls of active or inactive are those of the source.
Each item that follows carries a reported IC50.
quantity-kind: IC50

1) O=C(COC(=O)c1cc(Br)ccc1O)Nc1cc(S(=O)(=O)N2CCCC2)ccc1Cl ... 7.17 µM (active)
2) Nc1[nH]cnc2nc(SCCN3CCCCC3)nc1-2 ... > 50 µM (not active)
3) O=C(Nc1ccc(Cl)c(Cl)c1)C1CC(=O)N(c2ccc(Br)cc2)C1 (centres undefined) ... > 50 µM (not active)
4) CC1OC(O[C@H]2CC[C@]3(C)C4C=C[C@]56OC[C@@]7(CC[C@@H](C)[C@H](C)C75)[C@H](O)C[C@@]6(C)[C@]4(C)CC[C@H]3C2(C)C)C(OC2OC(CO)C(O)C(O)C2OC2OCC(O)C(O)C2O)C(O)C1O (some centres undefined) ... > 50 µM (not active)

###

Read-out record for Cytochrome P450 3A4 (Homo sapiens): AC50
quantity-kind: AC50

1) N#Cc1ccc(CN2CCCC3(CCN(C(=O)c4cccc(F)c4)CC3)C2)cc1 ... 10 µM (inconclusive)
2) CCOc1ccc(CNC(=O)C2CCC(=O)N2C2CCCC2)cc1OC (configuration not stated) ... 25.1 µM (inconclusive)
3) COc1ccc(NC(=O)N2CCC3(CC2)CCN(S(=O)(=O)c2ccccc2)CC3)cc1 ... 20 µM (inconclusive)
4) O=c1c(-c2cccs2)nc2cncnc2n1C1CC1 ... 5.01 µM (inconclusive)
5) COc1ccccc1-c1nc(N(C)C)c2ccccc2n1 ... 15.8 µM (inconclusive)
6) O=C(N/N=C/c1ccncc1)c1cc([N+](=O)[O-])cc([N+](=O)[O-])c1O ... 1 µM (inconclusive)
7) COC(=O)[C@@]1(Cc2ccc(OC)cc2)[C@@H]2C(=CC(=O)[C@H]2CC(=O)C(=O)N2CCCC2)CN1C(=O)c1ccccc1 ... 2 µM (inconclusive)
8) Cc1nc2cnc(Oc3cccc(Cl)c3)nc2n(C[C@H]2CCCO2)c1=O ... 15.8 µM (inconclusive)
9) O=C(NCCN1CCCC1)C1(S(=O)(=O)c2ccc(Cl)cc2)CC1 ... 39.8 µM (inconclusive)
10) COc1ccc2nc(O)c(CN(CCO)C(=O)c3cccs3)cc2c1 ... 15.8 µM (inconclusive)
11) CCc1ccc(C(=O)COC(=O)c2cccc(N3C(=O)c4c(C)nc5ccccc5c4C3=O)c2)cc1 ... 22.4 µM (inconclusive)
12) COc1ccc(/C=N/NC(=O)C2CCN(c3ncc(C(F)(F)F)cc3Cl)CC2)cc1 ... 11.2 µM (inconclusive)
13) COCCn1c(=O)c(-c2cccs2)nc2cnc(N3CCN(C)CC3)nc21 ... 31.6 µM (inconclusive)
14) Nc1cc(O)nc(SCC(=O)Nc2ccc(S(=O)(=O)N3CCOCC3)cc2)n1 ... 28.2 µM (inconclusive)
15) COc1ccc(NC(=O)N2CCCC3(CCN(C(=O)c4c(C)noc4C)CC3)C2)cc1 ... 25.1 µM (inconclusive)
16) COc1cccc2[nH]c3c(N4CC(C)CC(C)C4)ncnc3c12 (configuration not stated) ... 0.891 µM (inconclusive)
17) Cc1cc(C(=O)Nc2ccc(N3CCOCC3)cc2)c2ccccc2n1 ... 15.8 µM (inconclusive)
18) CN(C)Cc1ccccc1-c1nc(N(C)Cc2ccco2)c2ccccc2n1 ... 1.58 µM (inconclusive)
19) OCCCCNCc1ccc(OCc2ccccc2Cl)cc1 ... 25.1 µM (inconclusive)
20) CC(C)=CCC/C(C)=C/CO/N=C1/C[C@@H](O)[C@@H](O)[C@@H]2[C@H]3C(=O)N(c4ccc(F)cc4F)C(=O)[C@@H]3CC[C@@H]12 ... 3.98 µM (inconclusive)
21) CC(C)(Oc1ccc(Cl)cc1)C(=O)Nc1cccnc1 ... 17.8 µM (inconclusive)
22) CCOC(=O)CC(=O)CSc1nc(-c2cccnc2)cc(C)c1C#N ... 11.2 µM (inconclusive)
